Sourced from paper PMC9777025

Molecular target: TGFβR2 (Homo sapiens, UniProt P37173)
Sequence (P37173 23-567): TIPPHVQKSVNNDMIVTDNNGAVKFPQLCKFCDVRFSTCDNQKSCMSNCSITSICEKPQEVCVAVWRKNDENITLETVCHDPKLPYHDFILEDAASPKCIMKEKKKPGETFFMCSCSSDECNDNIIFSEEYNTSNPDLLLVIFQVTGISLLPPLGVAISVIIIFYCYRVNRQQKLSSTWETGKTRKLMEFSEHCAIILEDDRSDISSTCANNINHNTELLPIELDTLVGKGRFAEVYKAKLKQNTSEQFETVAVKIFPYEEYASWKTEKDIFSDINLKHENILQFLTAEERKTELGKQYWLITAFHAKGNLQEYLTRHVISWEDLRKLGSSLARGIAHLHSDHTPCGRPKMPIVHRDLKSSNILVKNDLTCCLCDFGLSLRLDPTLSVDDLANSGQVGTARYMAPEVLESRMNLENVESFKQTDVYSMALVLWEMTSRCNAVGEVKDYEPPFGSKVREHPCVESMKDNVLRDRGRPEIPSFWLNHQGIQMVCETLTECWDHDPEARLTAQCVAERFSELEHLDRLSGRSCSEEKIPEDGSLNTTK
result-type: IC50 (µM)
Numbers only, in µM.

Input line: Can you look up the measured IC50 of COc1cc(C2Oc3cc([C@H]4Oc5cc(O)cc(O)c5C(=O)[C@@H]4O)ccc3OC2CO)ccc1O (mixture of isomers) [silibinin] for me?
Output line: 56

====

Target: TGFβR1/ALK5 (Homo sapiens, UniProt P36897)
Sequence (P36897 34-503): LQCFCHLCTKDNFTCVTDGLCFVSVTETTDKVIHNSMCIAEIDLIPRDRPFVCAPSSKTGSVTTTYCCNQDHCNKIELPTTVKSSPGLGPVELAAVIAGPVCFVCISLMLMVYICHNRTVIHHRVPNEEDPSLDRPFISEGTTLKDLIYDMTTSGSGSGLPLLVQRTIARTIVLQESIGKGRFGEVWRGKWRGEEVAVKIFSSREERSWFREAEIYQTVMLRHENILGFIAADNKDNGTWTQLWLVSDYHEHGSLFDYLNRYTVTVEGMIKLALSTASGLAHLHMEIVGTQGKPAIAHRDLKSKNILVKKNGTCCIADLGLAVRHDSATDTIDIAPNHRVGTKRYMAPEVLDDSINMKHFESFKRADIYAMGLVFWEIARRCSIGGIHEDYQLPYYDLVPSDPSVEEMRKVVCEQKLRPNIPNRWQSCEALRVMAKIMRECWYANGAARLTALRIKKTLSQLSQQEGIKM
Experiment: LanthaScreen Eu kinase binding assay (TR-FRET tracer displacement), 10-point titration
result-type: IC50 (µM)
Numbers only, in µM.

Input line: // map COc1cc(C2Oc3cc([C@H]4Oc5cc(O)cc(O)c5C(=O)[C@@H]4O)ccc3OC2CO)ccc1O (mixture of isomers) [silibinin] to recorded IC50 (system: TGFβR1/ALK5 (Homo sapiens, UniProt P36897))
Output line: 70

====

Kindly supply the reported pIC50 values for the records listed here.
System: H3122
Assay: cells
Design: species or system H2228, H2228/CR, H3122/CR; MTT cell viability assay, absorbance at 570 nm, IC50 by interpolation
Settings: Homo sapiens, NCI-H3122; without silibinin
Numbers only, as −log10 of the molar value.

structure-smiles-string | result-type | readout-number
COc1cc(N2CCC(N3CCN(C)CC3)CC2)ccc1Nc1ncc(Cl)c(Nc2ccccc2P(C)(C)=O)n1 | pIC50 | 7.70
C[C@@H](Oc1cc(-c2cnn(C3CCNCC3)c2)cnc1N)c1c(Cl)ccc(F)c1Cl | pIC50 | 6.54

We now examine a further compound.
Input line: Can you look up the measured pIC50 of `C[C@H]1Oc2cc(cnc2N)-c2c(nn(C)c2C#N)CN(C)C(=O)c2ccc(F)cc21` for me?
Output line: 8.40
